The reported numbers originate from PubChem BioAssay (NCI).

# Protocol details: NCI Yeast Anticancer Drug Screen. Data for the mgt1 strain (AID 153)
# Recorded conditions: S. cerevisiae mgt1 mutant growth inhibition; at 100.0 µM; stronger effect = higher value
About 79,000 compounds went through this panel and 15% of them were active in at least one assay; those are over-represented in the sample as a whole.
Listed molecules paired with reported growth inhibition
Recorded metric: growth inhibition (%)

In [3]: df
Out[3]:
                                    molecule    recorded_metric  reported
 0  COc1ccc2[nH]cc([C@@H]3C4CCC(C4)[C@H]3NCc3cccc(CN[C@H]4C5CCC(C5)[C@@H]4c4c[nH]c5ccc(OC)cc45)c3)c2c1  growth inhibition        98
 1                  Cc1ccccc1N=C(NO)c1ccccc1  growth inhibition        95
 2               Cc1csc(=S)n1OC(=O)NC1CCCCC1  growth inhibition        99
 3      O=P(NC1CCCCC1)(OCc1ccccc1)OCc1ccccc1  growth inhibition         7
 4  COC(=O)CC1(O)C(/C=C/c2ccccc2)C(C(=O)OC)C(=O)C(C(=O)OC)C1C(=O)OC (centres undefined)  growth inhibition        43
 5  Cc1ccc(NC(c2ccccc2)c2ccc3cccnc3c2O)cc1 (centres undefined)  growth inhibition         0
 6             NNC(=O)CCc1cc2ccccc2c2ccccc12  growth inhibition        99
 7                    O=c1[nH]c2ccc(Cl)cc2o1  growth inhibition       -23
 8  COc1ccc(/C=C2\NC(=S)N(/C=C3\C(=O)Oc4ccccc4C3=O)C2=O)cc1  growth inhibition        28
 9  Cc1c2cccc(Sc3ccccc3)c2c2c3c(cccc13)[S+](c1ccccc1)C2 (centres undefined)  growth inhibition        90
10         Oc1[nH]c2ccccc2c1N=NC(=S)N1CCCCC1  growth inhibition        99
11  CC1=C(C(=O)NCc2ccccc2)C(c2ccccc2)C(C(=O)NCc2ccccc2)=C(C)N1  growth inhibition        97
12  CC1=CC(=C(c2ccc(N)cc2)c2ccc(N)cc2)C=CC1=N  growth inhibition        76
13  CCCCCCCCCCCC(O)S(=O)(=O)O (centres undefined)  growth inhibition        70
14  Nc1ncnc2c1ncn2C1OC(CO)CC1O (centres undefined)  growth inhibition        89
15  COc1ccc(C(=O)c2ccccc2C(=O)c2ccccc2OC)cc1  growth inhibition         7
16                            CSc1nnc(SC)nn1  growth inhibition        98
17               Cc1c(C(C)C)cc(OCCO)cc1C(C)C  growth inhibition         7
18                     Cc1ccc(Sc2ccccc2N)cc1  growth inhibition        98
19                   O=c1ccc2ccccc2c2ccccc12  growth inhibition        99
20     Cc1ccc(NCCNCCO)c2c(=O)c3cc(O)ccc3sc12  growth inhibition        90
21  CN(C)CCCCN1c2ccccc2Sc2ccc(N=[N+]=[N-])cc21  growth inhibition        99
22  C=C1C(=O)OC2CC1C(OC(C)=O)C/C(C)=C/CC/C(C)=C\CCC2(C)O (centres undefined)  growth inhibition        80
23  COC(=O)C1(C)CCc2c(ccc3ccccc23)C1=O (centres undefined)  growth inhibition        30

###

# Protocol details: NCI Yeast Anticancer Drug Screen. Data for the rad50EPP+ strain (AID 151);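 further: 0% = growth of vehicle-treated control cultures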
# Recorded conditions: S. cerevisiae rad50 mutant strain, at 33.0 µM, stronger effect = higher value
The panel holds about 79,000 compounds, 15% with a hit somewhere; the sample as a whole holds those more often.
Each entry gets rule not met if its growth inhibition stays under 60%, and rule met if its growth inhibition is 60% or above.

>>> df
                                smiles_repr  class_assignment
0  O=C1C(Br)=C(c2ccccc2)O/C1=C/C(=O)c1ccc(Br)cc1          rule met
1  Cc1ccc([N+]2=NC(c3ccccc3)=NN(c3ccccc3)C2)cc1      rule not met
2         CCOC(=O)C#Cc1ccc([N+](=O)[O-])cc1      rule not met
3                CN1C(=O)c2ccc3ccccc3c2C1=O      rule not met
4  O=[N+]([O-])c1ccc2c(c1)/C(=N/N=C1c3ccccc3Cc3ccccc31)c1cc([N+](=O)[O-])cc([N+](=O)[O-])c1-2          rule met

###

Listed compounds paired with reported growth inhibition
# Protocol details: NCI Yeast Anticancer Drug Screen. Data for the rad50 strain (AID 155);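 further: 0% = growth of vehicle-only cultures of the same strain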
# Recorded conditions: S. cerevisiae rad50 strain growth inhibition; at 50.0 µM (retest, dose inferred, filed as 5.0); stronger effect = higher value
This is part of a sample that, as a whole, favours compounds with a hit. Of some 79,000 tested, about 15% had one in any assay. Active and inactive are the calls of the source. Cut-off read from the data, not from the text of the source: active = growth inhibition above about 70%; inactive = the rest.
Recorded metric: growth inhibition

>>> print(df.to_string())
                                smiles_repr        reported
0  CCOC(=O)C(C(=O)OCC)=P(c1ccccc1)(c1ccccc1)c1ccccc1  36% (inactive)
1  O=C1NC(SSC2=NNC3(C(=O)N2)c2ccccc2-c2ccccc23)=NNC12c1ccccc1-c1ccccc12  53% (inactive)
2             C/C=C/SC(=Nc1ccccc1)Nc1ccccc1    78% (active)
3  CNC(=O)OCc1c(COC(=O)NC)c2n(c1C)-c1ccc(OC)cc1CCC2    99% (active)
4         CCOC(=O)C#Cc1ccc([N+](=O)[O-])cc1  50% (inactive)

###

# Protocol details: NCI Yeast Anticancer Drug Screen. Data for the sgs1 mgt1 strain (AID 161);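 further: 0% = growth of cultures given vehicle only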
# Recorded conditions: S. cerevisiae sgs1 mgt1 strain, at 50.0 µM
About 79,000 compounds went through this panel and 15% of them were active in at least one assay; those are over-represented in the sample as a whole. Activity calls are given as the source filed them. Rule as the data show it: active = growth inhibition above about 70%; inactive = the rest.
Possible outcomes: active, inactive

>>> df
                                    molecule  class_assignment
 0                     NC(=S)NC(=S)Nc1ccccc1            active
 1  CCOC(=O)C1=C(C)NC(C)=C(C(=O)OCCNC(=O)c2ccc(N=[N+]=[N-])cc2)C1c1ccccc1C(F)(F)F (stereo unspecified)          inactive
 2  C[Si](C)(C)/C=C/CCNC(C#N)c1ccccc1 (stereo unspecified)            active
 3  O=[N+]([O-])/C=C/c1cc(Cl)c(/C=C/[N+](=O)[O-])cc1Cl            active
 4      O=C1Nc2ccc(Br)cc2C1=Nc1ccc2c(c1)OCO2          inactive
 5                   COc1ccc(N=CN(C)C)c(C)c1            active
 6         CCOC(=O)C#Cc1ccc([N+](=O)[O-])cc1          inactive
 7          N#CC(C#N)=NNc1ccc(S(=O)(=O)O)cc1          inactive
 8  COc1ccc(C/C=N/Nc2ccc([N+](=O)[O-])cc2)cc1OC            active
 9               Cc1c(C(C)C)cc(OCCO)cc1C(C)C          inactive
10  O=C(CC(C(=O)O)N1CCOCC1)c1ccccc1 (stereo unspecified)          inactive
11        O=C1C=C(Cl)C(=O)C(c2ccc(Cl)cc2)=C1            active
12  CC(=O)ON=C1C=CC(=C(C#N)c2ccc(Cl)cc2)C=C1            active
13  O=[N+]([O-])c1cccc2nc3ccccc3c(NCCC[N+]3([O-])CCCCC3)c12            active
14  Cc1cc(C(C)(C)C)c(OCCCN2CCOCC2)c(C(C)(C)C)c1            active
15           CCCCCCCCCCCCCCCCCC(=O)NCCCN(C)C            active
16  CCCCNC1CCC2(SCCS2)c2[nH]c3ccccc3c21 (stereo unspecified)            active
17          Cc1cc(=O)oc2c(C)c3occc(=O)c3cc12            active
18  CCC1(OC(=O)CN2CCN(CCO)CC2)C(=O)OCc2c1cc1n(c2=O)Cc2cc3ccccc3nc2-1 (stereo unspecified)          inactive
19         CC(C)/C(Cl)=N\OC(=O)Nc1ccc(F)cc1F            active
20  C[CH2][Sn]([CH2]C)([O]C(=O)C(N)Cc1ccccc1)[O]C(=O)C(N)Cc1ccccc1 (stereo unspecified)          inactive
21   CC(C)(C)c1ccc(NS(=O)(=O)c2ccc(N)cc2)cc1            active
22             Cc1cccc2c1nc1ccc(Cl)cc1[n+]2C            active
23  CCOC(=O)C(Br)C(Br)c1ccccc1Cl (stereo unspecified)            active
24                   Nc1ncc(-c2ccc(Br)cc2)s1            active
25  C[C](C)(C)[Ge]([O][Ge]([c]1ccccc1)[c]1ccccc1)([O][Ge]([c]1ccccc1)[c]1ccccc1)[C](C)(C)C          inactive
26                    CC[N+](CC)(CC)c1ccccc1          inactive
27  COC(=O)CCC(NC(=S)N/N=C(\C)c1ccccn1)C(=O)OC (stereo unspecified)            active
28     CCCCOP(=O)(CCCP(=O)(OCCCC)OCCCC)OCCCC          inactive
29  CC1CC[C@]2(C(=O)O)CCC3(C)C(=CC(=O)C4[C@@]5(C)CCC(=O)C(C)(C)C5CC[C@]43C)[C@@H]2[C@H]1C (stereo partly specified)            active
30  CCCOC(=O)C(F)C(Br)C(=O)OCCC (stereo unspecified)            active
31  COc1ccc([N+](=O)[O-])c2c(NCCCN(C)C)c3ccccc3nc12          inactive
32  CCOC(=O)c1[nH]cc(C)c1-c1cccn1-c1ccc(Cl)cc1[N+](=O)[O-]          inactive
33                     Cc1ccc(Sc2ccccc2N)cc1            active
34        CCOc1c(N=Nc2ccccc2OC)c(C)nn1C(=S)S            active
35  O=C(O)CCCC1CCCc2c1ccc1ccccc21 (stereo unspecified)            active
36  CC[N+]1(C)CCC(O)(c2ccc(OC)cc2)C(C(=O)c2ccc(OC)cc2)C1 (stereo unspecified)          inactive
37         Cc1ccc(S/C(=C\C(=O)O)c2ccccc2)cc1          inactive
38  CCC(C)OC(=O)Nc1ccc(C)c(NC(=O)OC(C)CC)c1 (stereo unspecified)            active
39  O=C1c2cccnc2C(=O)C2C3C=CC(C3)C12 (stereo unspecified)            active
40  CCCC/C([O-])=C1/C(=O)N(c2ccccc2)N=C1C.CCCC/C([O-])=C1/C(=O)N(c2ccccc2)N=C1C.[Cu+2]          inactive
41  COC(=O)C1=C(C(=O)OC)C(C(=O)OC)C(C(=O)OC)C(C(=O)OC)(C(=O)OC)C(C(=O)OC)=C1C(=O)OC (stereo unspecified)            active
42      CCC(C)(C)c1ccc(Oc2cccc(C(=O)O)c2)cc1          inactive
43  Cc1cc(S(=O)(=O)Nc2nnc3cnc4ccccc4n23)c(S)cc1Cl          inactive
44              S=C1SCN(C2CCCCC2)CN1C1CCCCC1            active
45     Cc1ccc(NCCNCCO)c2c(=O)c3cc(O)ccc3sc12            active
